- Tested on: Aphis craccivoral
- assay-explanation: Insecticidal activities to aphids, immersion method
- Assay type: in vivo
- condition-parameters: in vivo
property-label: Aphis craccivoral Mortality (%) 500 ppm
Provide the reading as a plain figure in %.

> print(dat)
                                   compound  uom  number
1  CN=C(NCc1ccc(Cl)nc1)C(=Cc1ccsc1)[N+](=O)[O-]    %     100
2  CN=C(C(=Cc1ccc([N+](=O)[O-])s1)[N+](=O)[O-])N(C)Cc1cnc(Cl)s1    %      46
3  C[N+]1=C(C(=Cc2ccc([N+](=O)[O-])s2)[N+](=O)[O-])N(Cc2ccc(Cl)nc2)CC1.[Cl-]    %     100
4  O=[N+]([O-])C(=Cc1ccc(CO)o1)C1=NCCN1CC1CCOC1 (centres unmarked)    %      75
5  CCc1ccc(C=C(C2=[N+](C)CCN2Cc2ccc(Cl)nc2)[N+](=O)[O-])o1.[Cl-]    %     100

Item under review: CN=C(C(=C(C)c1ccc(Cl)s1)[N+](=O)[O-])N(C)C(C)c1ccc(Cl)nc1 (centres unmarked) . Reported Aphis craccivoral Mortality (%) 500 ppm? 100

One more compound: Cc1ccc(C=C(C2=NCCN2Cc2ccc(Cl)nc2)[N+](=O)[O-])o1 100

One more compound: O=[N+]([O-])C(=Cc1cc(Br)c(Br)o1)C1=NCCN1CC1CCOC1 (centres unmarked) 90

###

- System: Nilaparvata lugens
- assay-explanation: Insecticidal activities to plant hopper, spraying method
- Assay type: in vivo
- condition-parameters: in vivo
Form field: Nilaparvata lugens Mortality (%) 500 ppm (one value per entry).
Provide the reading as a plain figure in %.

Consider the reported Nilaparvata lugens Mortality (%) 500 ppm for these compounds:
> print(dat)
                                    compound                            property.label  uom  number
 1  CCN=C(C(=Cc1ccc([N+](=O)[O-])o1)[N+](=O)[O-])N(C)Cc1ccc(Cl)nc1  Nilaparvata lugens Mortality (%) 500 ppm    %     100
 2  O=[N+]([O-])C(=Cc1ccc[nH]1)C1=NCCN1Cc1ccc(Cl)nc1  Nilaparvata lugens Mortality (%) 500 ppm    %     100
 3  CCN(C(=NC)C(=Cc1ccc(Cl)o1)[N+](=O)[O-])C(C)c1ccc(Cl)nc1 (stereo not shown)  Nilaparvata lugens Mortality (%) 500 ppm    %     100
 4  C[N+]1=C(C(=Cc2oc(Cl)cc2Cl)[N+](=O)[O-])N(Cc2ccc(Cl)nc2)CC1.[Cl-]  Nilaparvata lugens Mortality (%) 500 ppm    %     100
 5  CC(c1ccc(Cl)nc1)N1CCN=C1C(=Cc1cccs1)[N+](=O)[O-] (racemic)  Nilaparvata lugens Mortality (%) 500 ppm    %     100
 6  O=[N+]([O-])C(=Cc1cc(Cl)c(Cl)s1)C1=NCCN1Cc1ccc(Cl)nc1  Nilaparvata lugens Mortality (%) 500 ppm    %     100
 7  C[N+]1=C(C(=Cc2oc(Br)cc2Br)[N+](=O)[O-])N(Cc2ccc(Cl)nc2)CC1.[Cl-]  Nilaparvata lugens Mortality (%) 500 ppm    %     100
 8  CN=C(C(=Cc1ccsc1)[N+](=O)[O-])N(C)Cc1ccc(Cl)nc1 [Compound 237]  Nilaparvata lugens Mortality (%) 500 ppm    %      98
 9  O=[N+]([O-])C(=Cc1cc(Br)c(Br)s1)C1=NCCN1Cc1ccc(Cl)nc1  Nilaparvata lugens Mortality (%) 500 ppm    %     100
10  O=[N+]([O-])C(=Cc1ccoc1)C1=NCCN1Cc1cnc(Cl)s1  Nilaparvata lugens Mortality (%) 500 ppm    %     100

Item under review: CCN(C(=NC)C(=Cc1ccc[nH]1)[N+](=O)[O-])C(C)c1ccc(Cl)nc1 (stereo not shown) . Reported Nilaparvata lugens Mortality (%) 500 ppm? 73

One more compound: CCN(Cc1ccc(Cl)nc1)C(=NC)C(=C(C)c1cccs1)[N+](=O)[O-] 100

One more compound: O=[N+]([O-])C(=Cc1cc(Cl)cs1)C1=NCCN1Cc1cnc(Cl)s1 100

One more compound: CC[N+]1=C(C(=Cc2ccc([N+](=O)[O-])o2)[N+](=O)[O-])N(Cc2ccc(Cl)nc2)CC1.[Cl-] 100

One more compound: CN=C(C(=Cc1ccc[nH]1)[N+](=O)[O-])N(C)Cc1cnc(Cl)s1 52

One more compound: Cc1coc(C=C(C2=[N+](C)CCN2Cc2ccc(Cl)nc2)[N+](=O)[O-])c1.[Cl-] 100

Data credit: patent US8232407B2
